# assayRemarks: AUC (0 to t) in mouse plasma at 1 mg/kg, po
# Type: ADME, organism-based
# Design: dose 1 mg/kg, route po

{"columns": ["structureSmiles", "AUC(0-t) / µM·h"],
 "data": [
  ["CC1(Nc2nc(N)nc3nc(-c4cc[nH]n4)ccc23)CC1", 0.2]
]}

---

Each record here notes measured Vd.
# assayRemarks: Volume of distribution at steady state in mouse
# Format: ADME, organism-based
# measurementSetup: in vivo, read-out: Vdss

{"columns": ["structureSmiles", "Vd [L/kg]"],
 "data": [
  ["Nc1nc(NC2CC2)c2ccc(-c3cc[nH]n3)nc2n1", 13],
  ["CC1(Nc2nc(N)nc3nc(-c4cc[nH]n4)ccc23)CC1", 7.8],
  ["CC1(Nc2nc(N)nc3cc(-c4cc[nH]n4)ccc23)CC1", 4.7],
  ["Nc1cc(NCCn2cccn2)c2ccc(-n3cccn3)cc2n1", 3.1],
  ["CCN(Cc1nc2c(N)nc3cc(-c4cc[nH]n4)ccc3c2[nH]1)C(C)=O", 0.8]
]}

Measured values drawn from ChEMBL document CHEMBL5390234 for this set.
